Tested Target: HIV Env of isolate Q461.e2 (clade A) (HIV)
Procedure Details: cell-based or functional assay
Quick reference: IC80 (µg/ml) with constrains of the listed items.
Provide only the numeric value, understood in µg/mL.

Consider the worked cases shown below.
[[record]]
binder = "ePGDM9 (antibody, V domains shown) VH: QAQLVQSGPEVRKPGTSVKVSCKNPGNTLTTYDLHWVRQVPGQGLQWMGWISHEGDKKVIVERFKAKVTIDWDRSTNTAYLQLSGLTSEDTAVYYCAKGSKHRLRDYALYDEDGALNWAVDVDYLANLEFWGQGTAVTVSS VL: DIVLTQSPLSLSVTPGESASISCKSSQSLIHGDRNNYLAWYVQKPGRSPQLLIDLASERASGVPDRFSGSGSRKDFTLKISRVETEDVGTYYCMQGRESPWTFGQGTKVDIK"
reported_result = 0.24

[[record]]
binder = "PGDM1400 (antibody, V domains shown) VH: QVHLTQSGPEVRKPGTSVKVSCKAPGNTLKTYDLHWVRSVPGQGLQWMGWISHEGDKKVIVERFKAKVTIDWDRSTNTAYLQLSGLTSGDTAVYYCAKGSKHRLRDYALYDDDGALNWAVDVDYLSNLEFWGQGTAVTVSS VL: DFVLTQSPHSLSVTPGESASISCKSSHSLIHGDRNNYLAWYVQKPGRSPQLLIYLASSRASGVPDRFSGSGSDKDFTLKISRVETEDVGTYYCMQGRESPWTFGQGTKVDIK"
reported_result = 0.572


# next binder below
The reported value for ePGDM13 (antibody, V domains shown) VH: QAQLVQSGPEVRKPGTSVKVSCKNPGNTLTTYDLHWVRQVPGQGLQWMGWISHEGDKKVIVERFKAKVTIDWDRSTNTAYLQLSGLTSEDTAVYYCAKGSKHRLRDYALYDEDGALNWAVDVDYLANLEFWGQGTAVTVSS VL: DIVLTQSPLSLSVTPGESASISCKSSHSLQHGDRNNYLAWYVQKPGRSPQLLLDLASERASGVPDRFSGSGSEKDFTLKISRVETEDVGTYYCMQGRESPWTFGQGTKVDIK in terms of IC80 (µg/ml) with constrains is 0.528
